Molecular target: Mitogen-activated protein kinase 3 (Homo sapiens) (UniProt P27361)
Sequence (P27361 whole entry): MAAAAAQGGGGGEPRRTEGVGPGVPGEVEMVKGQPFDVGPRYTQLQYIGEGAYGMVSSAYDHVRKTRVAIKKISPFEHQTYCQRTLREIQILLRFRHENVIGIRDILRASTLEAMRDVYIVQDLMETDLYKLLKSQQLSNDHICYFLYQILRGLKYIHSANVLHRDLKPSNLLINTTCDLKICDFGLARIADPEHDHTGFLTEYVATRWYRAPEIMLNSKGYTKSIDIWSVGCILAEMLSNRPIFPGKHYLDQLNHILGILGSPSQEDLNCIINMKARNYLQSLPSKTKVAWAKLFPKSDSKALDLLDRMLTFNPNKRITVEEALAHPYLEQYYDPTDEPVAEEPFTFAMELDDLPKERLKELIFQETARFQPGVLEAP
Details: at 10 µM
Description: Millipore: Percentage of residual kinase activity of MAPK3 at 10uM relative to control. Control inhibitor: ERK Inhibitor II at 30.0uM. Buffer: 25 mM Tris pH 7.5, 0.02 mM EGTA
measurement.type: residual activity (%)
State just the number; it will be interpreted in %.

Completed entries (count: 7):
O=C1NC(=O)/C(=C\c2ccc3nccnc3c2)S1 77
Cn1cc(/C=C2\C(=O)Nc3ccc(S(N)(=O)=O)cc32)c2ccccc21 90
CO[C@H]1C[C@@H]2CC[C@@H](C)[C@@](O)(O2)C(=O)C(=O)N2CCCC[C@H]2C(=O)O[C@H]([C@H](C)C[C@@H]2CC[C@@H](O)[C@H](OC)C2)CC(=O)[C@H](C)/C=C(\C)[C@@H](O)[C@@H](OC)C(=O)[C@H](C)C[C@H](C)/C=C/C=C/C=C/1C 116
COc1cc2ncnc(Nc3ccc(NC(=O)c4ccccc4)cc3)c2cc1OC 83
Oc1ccc(Nc2nc(-c3ccc(Cl)cc3)cs2)cc1 81
COc1cc2ncnc(Nc3ccc(Oc4ccccc4)cc3)c2cc1OC 113
CO[C@H]1[C@@H](OC)C[C@H](C)[C@@H](OC)C2=CC(=O)C=C(NC(=O)/C(C)=C/C=C/[C@H](OC)[C@@H](OC(N)=O)/C(C)=C/[C@@H]1C)C2=O 89

Next:
Req: Item under review: Nc1nc(Nc2ccc(S(N)(=O)=O)cc2)nn1C(=S)Nc1c(F)cccc1F . Reported residual activity?
Resp: 3

----------
Target: Ephrin type-A receptor 1 (Homo sapiens) (UniProt P21709)
Sequence (P21709 whole entry): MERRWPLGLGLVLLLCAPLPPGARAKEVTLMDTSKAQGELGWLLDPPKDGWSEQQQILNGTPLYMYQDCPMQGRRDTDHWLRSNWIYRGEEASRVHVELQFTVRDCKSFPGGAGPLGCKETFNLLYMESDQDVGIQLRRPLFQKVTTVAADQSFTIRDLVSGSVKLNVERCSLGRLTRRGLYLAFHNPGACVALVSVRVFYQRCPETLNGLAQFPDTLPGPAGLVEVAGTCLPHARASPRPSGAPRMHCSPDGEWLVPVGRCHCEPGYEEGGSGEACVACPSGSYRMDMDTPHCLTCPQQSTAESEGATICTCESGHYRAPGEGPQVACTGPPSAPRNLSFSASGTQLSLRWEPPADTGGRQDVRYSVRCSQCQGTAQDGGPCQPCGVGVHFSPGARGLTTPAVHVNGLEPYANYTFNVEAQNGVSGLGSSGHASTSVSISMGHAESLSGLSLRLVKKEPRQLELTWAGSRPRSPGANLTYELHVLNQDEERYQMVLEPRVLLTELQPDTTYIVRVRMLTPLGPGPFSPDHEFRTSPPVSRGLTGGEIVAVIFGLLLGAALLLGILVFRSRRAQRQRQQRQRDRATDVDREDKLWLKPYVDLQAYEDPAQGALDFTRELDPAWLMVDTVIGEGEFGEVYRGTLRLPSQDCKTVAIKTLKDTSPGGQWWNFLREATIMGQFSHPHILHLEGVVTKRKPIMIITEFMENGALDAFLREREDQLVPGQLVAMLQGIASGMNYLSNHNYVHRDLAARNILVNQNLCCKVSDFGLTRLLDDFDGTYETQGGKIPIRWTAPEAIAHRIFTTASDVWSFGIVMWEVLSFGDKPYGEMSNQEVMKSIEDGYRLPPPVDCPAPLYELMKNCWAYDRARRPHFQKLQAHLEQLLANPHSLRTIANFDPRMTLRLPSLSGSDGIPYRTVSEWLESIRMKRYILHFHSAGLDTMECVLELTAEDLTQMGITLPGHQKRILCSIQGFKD
Details: at 1 µM
Known residual activity of a selection of compounds
State just the number; it will be interpreted in %.

Completed entries (count: 8):
O=C(Nc1cccc(Nc2cc(Nc3cccc(C(F)(F)F)c3)ncn2)c1)C1CC1 82
CCN(CC)CCCCN1c2ccccc2Oc2ccc(Cl)cc21 102
COc1cc2ncnc(Nc3ccc(O)c(Br)c3)c2cc1OC 35
O=C(O)c1ccc2c3c1cccc3c(=O)n1c3ccccc3nc21 103
C[C@@H](N)[C@H]1CC[C@H](C(=O)Nc2ccncc2)CC1 101
O=C1NC(=O)c2c1c1c3ccccc3[nH]c1c1[nH]c3cc(Br)ccc3c21 96
Oc1ccc(-c2nc(-c3ccc(F)cc3)c(-c3ccncc3)[nH]2)cc1 87
O=C1NC(=O)/C(=C/c2ccc3c(c2)OC(F)(F)O3)S1 93

Req: Item under review: Nc1n[nH]c2nnc(-c3c(-c4ccccc4)nn4ccccc34)cc12 . Reported residual activity?
Resp: 96

Req: Repeat for the following compound: Cc1ccc(S(=O)(=O)/C=C/C#N)cc1
Resp: 95

Req: Repeat for the following compound: CC[n+]1c(/C=C/N(C)c2ccccc2)n(-c2ccccc2)c2ccc(-c3nc4ccccc4s3)cc21
Resp: 100

Req: Repeat for the following compound: Cc1nc(-c2ccccc2)c(-c2ccncc2)o1
Resp: 103

Req: Repeat for the following compound: COc1cc2ncnc(Nc3ccc(NC(=O)c4ccccc4)cc3)c2cc1OC
Resp: 107

Req: Repeat for the following compound: NC(=O)c1ccc2[nH]c(-c3ccc(Oc4ccc(Cl)cc4)cc3)nc2c1
Resp: 96

Req: Repeat for the following compound: N#Cc1cnc2cnc(NCc3cccnc3)cc2c1Nc1ccc(F)c(Cl)c1
Resp: 95

Req: Repeat for the following compound: CC#CC(=O)Nc1cc2c(Nc3ccc(F)c(Cl)c3)ncnc2cn1
Resp: 102

Req: Repeat for the following compound: N#C/C(=C(\N)Sc1ccc(N)cc1)c1ccccc1C(F)(F)F
Resp: 94

----------
Molecular target: Tyrosine-protein kinase HCK (Homo sapiens)
Conditions: at 10 µM
Known residual activity of a selection of compounds
Reply with the number and its unit after it.

Completed entries (count: 4):
Nc1cccc(-c2cc3c(Oc4cccc(O)c4)ncnc3[nH]2)c1 -1%
Ic1cccc(CSc2nnc(-c3ccncc3)o2)c1 89%
O=Nc1c(-c2c(O)[nH]c3ccccc23)[nH]c2ccccc12 1%
N#CCCc1ccc2c(c1)-c1[nH]c3ccc([N+](=O)[O-])cc3c1CC(=O)N2 16%

Req: Item under review: Nc1n[nH]c2nnc(-c3c(-c4ccccc4)nn4ccccc34)cc12 . Reported residual activity?
Resp: 40%

Req: Repeat for the following compound: COc1cc2ncnc(Nc3ccc(O)c(Br)c3)c2cc1OC
Resp: 7%

----------
Known residual activity of a selection of compounds
Target: Serine/threonine-protein kinase 10 (Homo sapiens) (UniProt O94804)
Sequence (O94804 whole entry, looked up): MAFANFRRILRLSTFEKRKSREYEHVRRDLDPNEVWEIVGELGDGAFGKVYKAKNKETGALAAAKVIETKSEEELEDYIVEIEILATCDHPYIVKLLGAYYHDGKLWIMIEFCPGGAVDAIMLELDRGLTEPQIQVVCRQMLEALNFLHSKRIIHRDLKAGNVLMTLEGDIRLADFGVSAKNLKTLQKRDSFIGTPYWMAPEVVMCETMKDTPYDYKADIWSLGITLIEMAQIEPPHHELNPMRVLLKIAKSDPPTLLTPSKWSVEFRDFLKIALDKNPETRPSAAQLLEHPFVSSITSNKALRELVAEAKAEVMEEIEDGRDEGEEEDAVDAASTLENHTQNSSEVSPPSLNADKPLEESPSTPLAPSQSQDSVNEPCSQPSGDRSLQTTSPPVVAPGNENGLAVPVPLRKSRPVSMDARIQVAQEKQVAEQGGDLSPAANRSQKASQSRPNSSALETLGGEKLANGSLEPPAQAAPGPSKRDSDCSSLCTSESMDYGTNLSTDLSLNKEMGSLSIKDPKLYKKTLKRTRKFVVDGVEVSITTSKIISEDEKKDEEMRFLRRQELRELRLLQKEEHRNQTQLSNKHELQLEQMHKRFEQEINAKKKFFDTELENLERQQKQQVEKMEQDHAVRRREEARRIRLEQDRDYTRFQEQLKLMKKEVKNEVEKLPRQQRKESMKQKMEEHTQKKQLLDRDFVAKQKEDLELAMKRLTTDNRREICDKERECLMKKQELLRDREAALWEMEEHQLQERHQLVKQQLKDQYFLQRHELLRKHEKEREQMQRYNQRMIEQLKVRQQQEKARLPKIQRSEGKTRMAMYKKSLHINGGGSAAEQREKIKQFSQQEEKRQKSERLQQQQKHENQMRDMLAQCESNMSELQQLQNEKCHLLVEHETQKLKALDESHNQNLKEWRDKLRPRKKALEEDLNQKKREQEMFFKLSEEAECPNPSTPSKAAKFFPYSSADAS
Settings: at 10 µM
State just the number; it will be interpreted in %.

Req: Item under review: O=C(O)c1ccc2c3c1cccc3c(=O)n1c3ccccc3nc21 . Reported residual activity?
Resp: 39

Req: Repeat for the following compound: Oc1ccc(-c2nc(-c3ccc(F)cc3)c(-c3ccncc3)[nH]2)cc1
Resp: 59

Req: Repeat for the following compound: CC[n+]1c(/C=C/N(C)c2ccccc2)n(-c2ccccc2)c2ccc(-c3nc4ccccc4s3)cc21
Resp: 92

Req: Repeat for the following compound: Oc1c2ccccc2c2c3c(cccc13)N=N2
Resp: 62

Req: Repeat for the following compound: Nc1n[nH]c2nnc(-c3c(-c4ccccc4)nn4ccccc34)cc12
Resp: 29

----------
Biological target: RAC-gamma serine/threonine-protein kinase (Homo sapiens) (UniProt Q9Y243)
Sequence (Q9Y243 whole entry): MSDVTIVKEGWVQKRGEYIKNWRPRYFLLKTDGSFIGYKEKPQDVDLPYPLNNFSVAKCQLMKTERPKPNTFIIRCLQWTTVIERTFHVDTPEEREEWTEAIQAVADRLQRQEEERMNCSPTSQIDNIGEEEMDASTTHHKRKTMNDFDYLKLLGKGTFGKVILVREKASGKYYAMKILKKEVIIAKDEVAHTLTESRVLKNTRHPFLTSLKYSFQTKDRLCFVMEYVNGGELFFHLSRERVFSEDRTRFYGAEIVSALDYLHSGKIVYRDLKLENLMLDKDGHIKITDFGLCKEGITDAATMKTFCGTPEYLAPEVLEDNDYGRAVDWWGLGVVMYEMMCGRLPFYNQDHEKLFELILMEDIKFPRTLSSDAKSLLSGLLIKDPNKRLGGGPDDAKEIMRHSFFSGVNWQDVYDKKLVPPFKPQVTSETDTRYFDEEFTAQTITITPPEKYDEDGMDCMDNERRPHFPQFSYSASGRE
Conditions: at 10 µM
measurement.type: residual activity (%)
State just the number; it will be interpreted in %.

Completed entries (count: 3):
Cc1ccc(NC2=CC(=O)c3sc(C)nc3C2=O)cc1 89
COc1cc2ncnc(N3CCN(C(=O)Nc4ccc(Oc5ccccc5)cc4)CC3)c2cc1OC 112
CO[C@@H]1[C@H](N(C)C(=O)c2ccccc2)C[C@H]2O[C@]1(C)n1c3ccccc3c3c4c(c5c6ccccc6n2c5c31)C(=O)NC4 14

Req: Item under review: O=Nc1c(-c2c(O)[nH]c3ccccc23)[nH]c2ccccc12 . Reported residual activity?
Resp: 64

Req: Repeat for the following compound: c1ccc2c(-c3ccncc3)c[nH]c2c1
Resp: 76

Req: Repeat for the following compound: Cc1cncc2cccc(S(=O)(=O)N3CCCN(C(=O)CN)C[C@H]3C)c12
Resp: 84

Req: Repeat for the following compound: COc1ccc(C(=O)Nc2sc3c(c2C(N)=O)CCCC3)cc1OC
Resp: 87

Req: Repeat for the following compound: Oc1ccc(Nc2nc(-c3ccc(Cl)cc3)cs2)cc1
Resp: 104

Req: Repeat for the following compound: Ic1cccc(CSc2nnc(-c3ccncc3)o2)c1
Resp: 74

Req: Repeat for the following compound: CC(C)n1cnc2c(NCc3ccccc3)nc(NCCCO)nc21
Resp: 90

Req: Repeat for the following compound: N#C/C(=C(\N)Sc1ccc(N)cc1)c1ccccc1C(F)(F)F
Resp: 86

----------
Target: Muscle, skeletal receptor tyrosine-protein kinase (Homo sapiens) (UniProt O15146)
Sequence (O15146 whole entry): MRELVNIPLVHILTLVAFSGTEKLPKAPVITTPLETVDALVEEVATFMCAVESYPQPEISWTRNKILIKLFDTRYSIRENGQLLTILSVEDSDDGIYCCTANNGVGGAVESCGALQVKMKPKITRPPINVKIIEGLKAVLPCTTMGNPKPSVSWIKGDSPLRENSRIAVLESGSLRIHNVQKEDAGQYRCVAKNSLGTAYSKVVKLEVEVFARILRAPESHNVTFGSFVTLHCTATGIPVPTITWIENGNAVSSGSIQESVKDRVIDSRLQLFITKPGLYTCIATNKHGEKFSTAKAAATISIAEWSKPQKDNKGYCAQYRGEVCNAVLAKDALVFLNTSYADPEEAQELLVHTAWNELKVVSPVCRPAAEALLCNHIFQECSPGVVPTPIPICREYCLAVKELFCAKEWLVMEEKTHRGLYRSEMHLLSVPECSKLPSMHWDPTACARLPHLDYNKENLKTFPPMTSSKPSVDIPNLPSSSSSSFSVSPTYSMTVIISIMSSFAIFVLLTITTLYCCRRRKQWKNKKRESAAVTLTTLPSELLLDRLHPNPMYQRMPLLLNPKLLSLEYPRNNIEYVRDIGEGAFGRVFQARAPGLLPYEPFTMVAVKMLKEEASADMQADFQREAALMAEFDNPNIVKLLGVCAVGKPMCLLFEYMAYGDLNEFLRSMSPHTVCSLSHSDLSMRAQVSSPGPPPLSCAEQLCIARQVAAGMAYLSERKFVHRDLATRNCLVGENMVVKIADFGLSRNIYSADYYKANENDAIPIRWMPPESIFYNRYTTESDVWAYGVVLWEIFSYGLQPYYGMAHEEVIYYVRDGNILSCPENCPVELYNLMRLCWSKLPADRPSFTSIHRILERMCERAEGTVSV
Settings: at 1 µM
Please note: y applies when residual activity is 90% or greater, and n applies otherwise.

Example cases with answers are listed next.
Cc1cccc(-c2[nH]c(C(C)(C)C)nc2-c2ccc3c(c2)OCO3)n1 y
Cn1cc(/C=C2\C(=O)Nc3ccc(S(N)(=O)=O)cc32)c2ccccc21 n

Req: Is it the case that CC(C)n1cnc2c(NCc3ccccc3)nc(NCCCO)nc21 has residual activity reaching or exceeding 90%?
Resp: n

Req: Repeat for the following molecule: COc1cccc(-c2cc(=O)c3ccccc3o2)c1N
Resp: y

Req: Repeat for the following molecule: CCN(CC)CCCCN1c2ccccc2Oc2ccc(Cl)cc21
Resp: y

Req: Repeat for the following molecule: CC[n+]1c(/C=C/N(C)c2ccccc2)n(-c2ccccc2)c2ccc(-c3nc4ccccc4s3)cc21
Resp: y

Req: Repeat for the following molecule: COc1ccc(CNc2nc(N(CCO)CCO)nc3c2ncn3C(C)C)cc1
Resp: n

Req: Repeat for the following molecule: COc1cc2ncnc(Nc3ccc(Oc4ccccc4)cc3)c2cc1OC
Resp: n

Req: Repeat for the following molecule: O=C1Nc2ccc(Br)cc2/C1=C\c1cc2c([nH]1)CCCC2
Resp: n

Req: Repeat for the following molecule: O=c1c2ccccc2[nH]c(=S)n1CCN1CCC(=C(c2ccc(F)cc2)c2ccc(F)cc2)CC1
Resp: y

Req: Repeat for the following molecule: Cn1nc2c3c(cccc31)C(=O)c1ccccc1-2
Resp: n

Req: Repeat for the following molecule: N#C/C(=C(\N)Sc1ccc(N)cc1)c1ccccc1C(F)(F)F
Resp: n

----------
Known residual activity of a selection of molecules
Molecular target: Serine/threonine-protein kinase Nek3 (Homo sapiens) (UniProt P51956)
Sequence (P51956 whole entry): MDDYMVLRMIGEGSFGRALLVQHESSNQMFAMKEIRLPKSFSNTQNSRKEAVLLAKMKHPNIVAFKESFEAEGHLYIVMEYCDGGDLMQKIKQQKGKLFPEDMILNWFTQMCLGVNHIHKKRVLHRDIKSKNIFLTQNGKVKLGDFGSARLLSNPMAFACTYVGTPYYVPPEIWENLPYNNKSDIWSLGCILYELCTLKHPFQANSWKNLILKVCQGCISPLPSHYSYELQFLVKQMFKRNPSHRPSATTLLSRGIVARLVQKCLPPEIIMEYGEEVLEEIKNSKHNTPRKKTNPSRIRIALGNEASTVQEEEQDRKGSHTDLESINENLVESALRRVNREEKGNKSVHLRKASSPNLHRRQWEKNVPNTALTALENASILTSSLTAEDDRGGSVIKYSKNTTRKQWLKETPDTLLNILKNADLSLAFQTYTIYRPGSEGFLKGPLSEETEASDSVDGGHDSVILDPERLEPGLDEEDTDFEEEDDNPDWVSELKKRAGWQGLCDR
Settings: at 10 µM
Description: Millipore: Percentage of residual kinase activity of NEK3 at 10uM relative to control. Control inhibitor: Phosphoric acid* at 0.3uM. Buffer: 8 mM MOPS pH 7.0, 0.2 mM EDTA

O=Nc1c(-c2c(O)[nH]c3ccccc23)[nH]c2ccccc12 94%
Cc1cc(Nc2nc(-c3ccccc3)nc3ccccc23)n[nH]1 78%

Req: Item under review: COc1cc2ncnc(N3CCN(C(=O)Nc4ccc(Oc5ccccc5)cc4)CC3)c2cc1OC . Reported residual activity?
Resp: 87%

Req: Repeat for the following molecule: CC#CC(=O)Nc1cc2c(Nc3ccc(F)c(Cl)c3)ncnc2cn1
Resp: 84%

Req: Repeat for the following molecule: O=C(Nc1cccc(Nc2nccc(Nc3cccc(C(F)(F)F)c3)n2)c1)C1CC1
Resp: 33%
